Listing of entries alongside the reported pIC50.
Molecular target: Bromodomain-containing protein 4 (Homo sapiens, UniProt O60885)
Assay: BRD4 Biochemical Activity Test: The experiment plate was a plate that contained a gradient concentration of the compound and a corresponding DMSO solution and was prepared with ECHO before the experiment:a) The experiment plate was taken out, and 5 μL/well of “solution A” (protein solution) was added to columns 2-23 of the experiment plate, then 5 μL/well of 1× assay buffer was added to columns 1 and 24 of the experiment plate, and columns 1 and 24 were used as Min control in the experiment system;b) Centrifugation at 1000 rpm was carried out for 30 seconds;c) The plate was incubated at 23° C. for 20 minutes;d) After 20 minutes of incubation, 5 μL/well of “solution B” (polypeptide solution) was added to columns 1-24 of the experiment plate;e) Centrifugation at 1000 rpm was carried out for 30 seconds;f) The plate was incubated at 23° C. for 20 minutes;g) After 20 minutes of incubation, 5 μL/well of “solution C” (test reagent solution) was added to columns 1-24 of the experiment plate;h) Centrifugation at 1000 rpm was carried out for 30 seconds;i) The plate was incubated at 23° C. for 40 minutes;j) The experiment plate was placed on EnVision to read the plate.
pIC50: −log10 of the molar value.

{"chemical_smiles": "Cc1sc2c(c1C)C(c1ccc(Cl)cc1)=N[C@@H](CC(=O)Nc1ccc3c(c1)CS(=O)(=O)C3)c1nnc(C)n1-2", "target_or_system": "Bromodomain-containing protein 4 (Homo sapiens, UniProt O60885)", "pIC50": 7.85}
{"chemical_smiles": "Cc1sc2c(c1C)C(c1ccc(Cl)cc1)=N[C@@H](CC(=O)Nc1ccc(O)c3c1COC3)c1nnc(C)n1-2", "target_or_system": "Bromodomain-containing protein 4 (Homo sapiens, UniProt O60885)", "pIC50": 7.68}

###

Molecular target: Bromodomain-containing protein 4 (Homo sapiens)
Assay: BRD4 Biochemical Activity Test: The experiment plate was a plate that contained a gradient concentration of the compound and a corresponding DMSO solution and was prepared with ECHO before the experiment:a) The experiment plate was taken out, and 5 μL/well of “solution A” (protein solution) was added to columns 2-23 of the experiment plate, then 5 μL/well of 1× assay buffer was added to columns 1 and 24 of the experiment plate, and columns 1 and 24 were used as Min control in the experiment system;b) Centrifugation at 1000 rpm was carried out for 30 seconds;c) The plate was incubated at 23° C. for 20 minutes;d) After 20 minutes of incubation, 5 μL/well of “solution B” (polypeptide solution) was added to columns 1-24 of the experiment plate;e) Centrifugation at 1000 rpm was carried out for 30 seconds;f) The plate was incubated at 23° C. for 20 minutes;g) After 20 minutes of incubation, 5 μL/well of “solution C” (test reagent solution) was added to columns 1-24 of the experiment plate;h) Centrifugation at 1000 rpm was carried out for 30 seconds;i) The plate was incubated at 23° C. for 40 minutes;j) The experiment plate was placed on EnVision to read the plate.
parameter_measured: IC50 (nM)

{"chemical_smiles": "Cc1sc2c(c1C)C(c1ccc(Cl)cc1)=N[C@@H](CC(=O)Nc1ccc3c(c1)CS(=O)(=O)C3)c1nnc(C)n1-2", "parameter_measured": "IC50", "output_unit": "nM", "result": 49}
{"chemical_smiles": "Cc1sc2c(c1C)C(c1ccc(Cl)cc1)=N[C@@H](CC(=O)Nc1ccc(O)c3c1COC3)c1nnc(C)n1-2", "parameter_measured": "IC50", "output_unit": "nM", "result": 100}

Attribution: ChEMBL document CHEMBL5729088
